biological target: UniProt:P00734; conditions: at 25 µM
Description: Inhibition of thrombin (unknown origin) expressed in Escherichia coli BL21(lambdaDE3) using Boc-Val-Pro-Arg-AMC as substrate at 25 uM incubated for 15 mins prior to substrate addition measured for 10 mins by fluorometric analysis
The source made the active and inactive calls. The rule behind the calls is not given here.
readout-name: inhibition

Here are 5 compounds together with their reported answers.
O=[N+]([O-])CBr :: inactive
O=[N+]([O-])/C=C/c1ccc(Br)o1 :: 19%
O=Cc1ccc(Br)o1 :: inactive
C[N+](=O)[O-] :: inactive
O=[N+]([O-])/C(Br)=C/c1ccc(Br)o1 :: 8%

// inhibition (UniProt:P00734) for `C[C@@H]1O[C@@H]1P(=O)(O)O` = inactive

The compound `C=C1C(=O)O[C@@H]2/C=C(\CO)CC/C=C(\C)C[C@H](OC(=O)C(=C)[C@H](O)CO)[C@@H]12` , when measured on UniProt:P00734, yielded inhibition of inactive

----------
test system: Ca-Ski; test: Cytotoxicity against human CaSki cells after 72 hrs by crystal violet staining method; format: ADME, cell-based
readout-name: pIC50
Answer as the number alone; pIC50 is minus log10 of concentration in mol/L.

O=[N+]([O-])/C=C/c1ccc(Br)o1 :: 4.74
O=[N+]([O-])/C(Br)=C/c1ccc(Br)o1 :: 4.30

Please find the next compound below.
Entry under test: `O=[N+]([O-])CBr` . Its pIC50 was 4.00

----------
test: Cytotoxicity against human lymphoblastoid cells assessed as cell vaibility at 46 uM; assay type: cell-based; details: read-out: Activity
readout-name: viability at 46 µM

Short answer for `O=[N+]([O-])/C=C/c1ccc(Br)o1` : viability at 46 µM was > 70%

----------
assay: Cytotoxicity against human lymphoblastoid cells assessed as cell vaibility at 3.4 uM; format: cell-based; conditions: read-out: Activity
readout-name: viability at 3.4 µM

# viability at 3.4 µM of `O=[N+]([O-])/C(Br)=C/c1ccc(Br)o1` = > 70%

----------
test: Half life of the compound in Muller-Hinton medium at 100 uM at pH 7.2; type: physicochemical
readout-name: half-life at 100 µM (min)
Unit min implied. Number only.

Entry `O=[N+]([O-])/C(Br)=C/c1ccc(Br)o1` ; half-life at 100 µM = 8

----------
system: Dengue virus; settings: at 50 µM
Description: Inhibition of Dengue virus NS2B-NS3 protease expressed in Escherichia coli BL21(lambdaDE3) using Abz-NleKRRS-3-(NO2)Y as substrate at 50 uM incubated for 15 mins prior to substrate addition measured for 15 mins by fluorometric analysis
Active and inactive are the calls of the source. No cut-off for these calls is given here.
readout-name: inhibition

Sample records with inhibition:
C[N+](=O)[O-] :: inactive
O=[N+]([O-])/C(Br)=C/c1ccc(Br)o1 :: 12%
C=C1C(=O)O[C@@H]2/C=C(\CO)CC/C=C(\C)C[C@H](OC(=O)C(=C)[C@H](O)CO)[C@@H]12 :: inactive
O=Cc1ccc(Br)o1 :: inactive
O=[N+]([O-])/C=C/c1ccc(Br)o1 :: 26%
C[C@@H]1O[C@@H]1P(=O)(O)O :: inactive

Here is another compound to look at.
Consider `O=[N+]([O-])CBr` . Its measured inhibition is inactive

----------
assay: Induction of GSH-adduct formation in citrate buffer at100 uM by RP-LC/MS analysis; settings: 100 µM
readout-name: Activity

O=[N+]([O-])/C=C/c1ccc(Br)o1 :: Not Active
O=Cc1ccc(Br)o1 :: Active
O=[N+]([O-])/C(Br)=C/c1ccc(Br)o1 :: Not Active
O=[N+]([O-])CBr [BROMO(NITRO)METHANE] :: Active

----------
assay: Half life of the compound in citrate buffer at pH 6
Quick list: half-life per entry.
Form entry: value (h) — number only.

O=[N+]([O-])/C=C/c1ccc(Br)o1 :: 116

Please look at the following molecule next.
half-life recorded for this molecule, `O=[N+]([O-])/C(Br)=C/c1ccc(Br)o1` , is 6

----------
Below, each of the compounds is paired with its reported IC50 value.
test: Inhibition of Staphylococcus aureus MurA2 expressed in Escherichia coli BL21(lambdaDE3) using UNAG and PEP as substrate incubated for 10 mins prior to PEP addition measured after 60 mins by spectrophotometric analysis; settings: read-out: IC50
Returns: string containing the numeric result and its unit.

Take a look at these entries with their results.
C[C@@H]1O[C@@H]1P(=O)(O)O :: 1.1 µM
O=[N+]([O-])CBr :: 6.2 µM
O=[N+]([O-])/C=C/c1ccc(Br)o1 :: 20.7 µM
C=C1C(=O)O[C@@H]2/C=C(\CO)CC/C=C(\C)C[C@H](OC(=O)C(=C)[C@H](O)CO)[C@@H]12 :: 20.4 µM

Okay, next one:
Briefly, IC50 measured for `O=[N+]([O-])/C(Br)=C/c1ccc(Br)o1` : 3.9 µM

----------
system: Escherichia coli; settings: at 10 µM
Description: Inhibition of Escherichia coli MetAP expressed in Escherichia coli BL21(lambdaDE3) using Met-AMC as substrate at 10 uM incubated for 30 mins prior to substrate addition measured for 15 mins fluorometric analysis
Activity calls are given as the source filed them. No cut-off for these calls is given here.
readout-name: inhibition

Some entries whose results are on file:
C=C1C(=O)O[C@@H]2/C=C(\CO)CC/C=C(\C)C[C@H](OC(=O)C(=C)[C@H](O)CO)[C@@H]12 :: inactive
C[N+](=O)[O-] :: inactive
O=[N+]([O-])CBr :: 85%
C[C@@H]1O[C@@H]1P(=O)(O)O :: inactive
O=Cc1ccc(Br)o1 :: inactive
O=[N+]([O-])/C=C/c1ccc(Br)o1 :: 30%

Memo: `O=[N+]([O-])/C(Br)=C/c1ccc(Br)o1` , reported inhibition: 85%

----------
Here the recorded MIC is given for each entry.
tested on: Staphylococcus aureus; experiment: microbe, parasite or virus in culture; assay type: functional; conditions: NCTC 10442
Description: Antibacterial activity against methicillin-resistant Staphylococcus aureus NCTC 10442 after 20 to 24 hrs by broth microdilution assay
// return numeric value only (unit: µg/mL, not printed)

O=[N+]([O-])CBr :: 2
O=[N+]([O-])/C(Br)=C/c1ccc(Br)o1 :: 4
C[C@@H]1O[C@@H]1P(=O)(O)O :: 4

# MIC of `O=[N+]([O-])/C=C/c1ccc(Br)o1` = 2

----------
Listing of recorded IC50 by entry.
target: UDP-N-acetylglucosamine 1-carboxyvinyltransferase (Escherichia coli K-12, UniProt P0A749); experiment: Inhibition of Escherichia coli MurA expressed in Escherichia coli BL21(lambdaDE3) using UNAG and PEP as substrate incubated for 10 mins prior to PEP addition measured after 60 mins by spectrophotometric analysis; details: read-out: IC50
Sequence (P0A749 whole entry): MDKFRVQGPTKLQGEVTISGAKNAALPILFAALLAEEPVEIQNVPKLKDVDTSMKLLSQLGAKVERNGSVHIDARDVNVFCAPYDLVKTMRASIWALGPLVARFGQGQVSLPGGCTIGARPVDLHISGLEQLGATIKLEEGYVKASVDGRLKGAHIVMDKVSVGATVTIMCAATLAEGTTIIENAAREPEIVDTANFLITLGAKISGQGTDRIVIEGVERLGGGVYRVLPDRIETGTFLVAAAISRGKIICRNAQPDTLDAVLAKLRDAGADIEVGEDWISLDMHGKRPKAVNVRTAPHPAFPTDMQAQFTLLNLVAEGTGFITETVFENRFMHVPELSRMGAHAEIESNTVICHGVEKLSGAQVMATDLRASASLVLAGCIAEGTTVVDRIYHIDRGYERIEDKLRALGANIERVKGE
Enter your answer as a number in µM; do not include the unit.

O=[N+]([O-])/C(Br)=C/c1ccc(Br)o1 :: 2.8

According to the records, this compound C[C@@H]1O[C@@H]1P(=O)(O)O [FOSFOMYCIN] displays IC50 of 0.1

Field IC50 (entry O=[N+]([O-])CBr [BROMO(NITRO)METHANE] ) reads 4.6

Recorded result, `O=[N+]([O-])/C=C/c1ccc(Br)o1` , IC50: 27.3

----------
system: Calu-6; experiment: Cytotoxicity against human Calu6 cells after 72 hrs by crystal violet staining method; assay type: ADME, cell-based; conditions: Calu-6, 72 h
readout-name: pIC50
pIC50 is defined as minus the log10 of a concentration measured in mol/L.

Example cases with answers are listed next.
O=[N+]([O-])/C=C/c1ccc(Br)o1 :: 5.30
C=C1C(=O)O[C@@H]2/C=C(\CO)CC/C=C(\C)C[C@H](OC(=O)C(=C)[C@H](O)CO)[C@@H]12 [CNICIN] :: 4.36
O=[N+]([O-])CBr [BROMO(NITRO)METHANE] :: 4.64

The measured pIC50 associated with `O=[N+]([O-])/C(Br)=C/c1ccc(Br)o1` reads 5.00

----------
test: Induction of GSSG formation in citrate buffer at 100 uM by RP-LC/MS analysis
readout-name: Activity

O=[N+]([O-])/C(Br)=C/c1ccc(Br)o1 :: Not Active
O=Cc1ccc(Br)o1 :: Active
O=[N+]([O-])/C=C/c1ccc(Br)o1 :: Active
O=[N+]([O-])CBr [BROMO(NITRO)METHANE] :: Not Active

----------
assay: Half life of the compound in tris buffer at pH 7.8
readout-name: half-life (h)
// units = h; emit number, no label

O=[N+]([O-])/C=C/c1ccc(Br)o1 :: 58

Notebook: `O=[N+]([O-])/C(Br)=C/c1ccc(Br)o1` , half-life read as 0.5

----------
The compounds listed here are annotated with their pIC50.
experiment: Inhibition of Pseudomonas aeruginosa MurA expressed in Escherichia coli BL21(lambdaDE3) using UNAG and PEP as substrate incubated for 10 mins prior to PEP addition measured after 60 mins by spectrophotometric analysis; settings: read-out: IC50
Convention used: pIC50 is expressed as -log10 of the molar concentration.

O=[N+]([O-])CBr :: 5.40

So for `C[C@@H]1O[C@@H]1P(=O)(O)O` , the logged pIC50 turned out to be 4.98

Just so you know, measured pIC50 for `O=[N+]([O-])/C(Br)=C/c1ccc(Br)o1` came out at 5.55

Looking up `O=[N+]([O-])/C=C/c1ccc(Br)o1` , I found its pIC50 recorded as 4.69

Looking up `C=C1C(=O)O[C@@H]2/C=C(\CO)CC/C=C(\C)C[C@H](OC(=O)C(=C)[C@H](O)CO)[C@@H]12` , I see its pIC50 listed as 4.99
